# target_or_test_system: OsWRKY34 (Oryza sativa, UniProt Q0JBA9 1-250)
# Sequence (Q0JBA9 entry or part of it): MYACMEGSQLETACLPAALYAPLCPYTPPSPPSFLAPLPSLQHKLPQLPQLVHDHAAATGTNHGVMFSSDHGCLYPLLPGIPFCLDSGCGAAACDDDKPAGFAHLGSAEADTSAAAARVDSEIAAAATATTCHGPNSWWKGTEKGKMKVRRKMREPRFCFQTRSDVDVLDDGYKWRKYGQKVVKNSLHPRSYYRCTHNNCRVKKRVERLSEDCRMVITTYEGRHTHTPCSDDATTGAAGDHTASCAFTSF
# protocol_details: protein-binding microarray (RPBM); PBS, 2% BSA, 51.3 ng/ul salmon testes DNA, 50 uM zinc acetate, 200 nM TF, 25 C, 1 h; high values mean tight binding
# measurement_conditions: protein: recombinant; tags: N-terminal polyhistidine and DsRed monomer fusion (pET32a); label: CyDye5-dUTP incorporated in the synthesized complementary strand; 3' TTTTT single-stranded linker to array surface; dsDNA, one strand shown
In all, about 68,000 sequences were measured (“fluorescence intensity (a.u.)”: median about 9,100, highest 2% from about 16,000 on). For the sample, the highest values were picked, then their nearest neighbours and some sequences at random.
measured_attribute: binding signal

1) GTTGGAGTTGGAGGAGGTGGTGCCGTGGTGGGGATTGATGCGGAGTCACCTAGTGCAG 10500 fluorescence intensity (a.u.)
2) AGGGTAAGAGGAGGAGGAGGAGGGGTAGGCGAGGGAGATGCGGAGTCACCTAGTGCAG 8490 fluorescence intensity (a.u.)
3) GTAGGAGGAGGAGGAGGAGGTGGTGGTGGTGGTGGTGATGCGGAGTCACCTAGTGCAG 15100 fluorescence intensity (a.u.)
4) AGGTGGAGGTGGGGAGGATGCGGGAGAGGGAGGTGATGATCGGAGTCACCTAGTGCAG 14000 fluorescence intensity (a.u.)
5) GGGTCAGAGGGTAGGTTATTGTTGGGTAGGTGTGGAATTGCGGAGTCACCTAGTGCAG 9800 fluorescence intensity (a.u.)
6) GCGGAGGTGGTGTGGGTGGGTGAGTGAGTGAGGAGTGATGCGGAGTCACCTAGTGCAG 17400 fluorescence intensity (a.u.)
7) CGGCCCAGGTGGGAGAGGAGGGGAGGGGAGGGGAGGGATGCGGAGTCACCTAGTGCAG 19800 fluorescence intensity (a.u.)
8) GGAGGTCAGGATTGTTGTGGTGGGGAATTGGAGGGAAATGCGGAGTCACCTAGTGCAG 19600 fluorescence intensity (a.u.)
9) GGGAGGGGCGGCCCAGCGGCAGCGGAGGGGAGGGAGGATGCGGAGTCACCTAGTGCAG 8640 fluorescence intensity (a.u.)

###

# target_or_test_system: OsWRKY34 (Oryza sativa, UniProt Q0JBA9 1-250)
# protocol_details: protein-binding microarray (RPBM); PBS, 2% BSA, 51.3 ng/ul salmon testes DNA, 50 uM zinc acetate, 200 nM TF, 25 C, 1 h; high values mean tight binding
# measurement_conditions: protein: recombinant; tags: N-terminal polyhistidine and DsRed monomer fusion (pET32a); label: CyDye5-dUTP incorporated in the synthesized complementary strand; 3' TTTTT single-stranded linker to array surface; dsDNA, one strand shown
The full ranking holds about 68,000 sequences; the median of “fluorescence intensity (a.u.)” is about 9,100, and the highest 2% start at about 16,000. This is one part of a sample in which the highest values are shown more often than they occur.
measured_attribute: binding signal

1. TTGCAAAATTTAAAATTATGTTGTCATTGTAATATATTTTCGGAGTCACCTAGTGCAG 8440 fluorescence intensity (a.u.)
2. TCATTGCACCTCTCATTTAACAAGGGATATAATAGTTCTTCGGAGTCACCTAGTGCAG 8360 fluorescence intensity (a.u.)
3. TGTTTGCACCTTATTACGGTTCTGCGCGCTCTCTCTCTCGCGGAGTCACCTAGTGCAG 8560 fluorescence intensity (a.u.)
4. TATGTTCGGTATCGTATTAAATCTACTCCTATTTGTACCTCGGAGTCACCTAGTGCAG 8570 fluorescence intensity (a.u.)
5. TAGTCTTTTCCATGTCATGTGATCATGTGTGGAGTTGATTCGGAGTCACCTAGTGCAG 8550 fluorescence intensity (a.u.)
6. CCAATTTTTTTTTCTCCTTTTGCTTTTTTTCATCAAGAACCGGAGTCACCTAGTGCAG 8740 fluorescence intensity (a.u.)
7. AGAATGTTATACGGCGCTCGATCTATTATTCCGCACTCTACGGAGTCACCTAGTGCAG 8130 fluorescence intensity (a.u.)
8. GCAGCGACGACATCTGACGGCCTCACCTACCTTTCGGTCTCGGAGTCACCTAGTGCAG 8460 fluorescence intensity (a.u.)
9. CTCGGGAGAGGGGAGGCGTAGATTCTTCTGTTGCTTCAGTCGGAGTCACCTAGTGCAG 10300 fluorescence intensity (a.u.)

###

# target_or_test_system: OsWRKY34 (Oryza sativa, UniProt Q0JBA9 1-250)
# protocol_details: protein-binding microarray (RPBM); PBS, 2% BSA, 51.3 ng/ul salmon testes DNA, 50 uM zinc acetate, 200 nM TF, 25 C, 1 h; high values mean tight binding
# measurement_conditions: protein: recombinant; tags: N-terminal polyhistidine and DsRed monomer fusion (pET32a); label: CyDye5-dUTP incorporated in the synthesized complementary strand; 3' TTTTT single-stranded linker to array surface; dsDNA, one strand shown
Over roughly 68,000 sequences, “fluorescence intensity (a.u.)” has its median near 9,100; the highest 2% begin near 16,000. Shown is part of a subset that was picked to be rich in the highest values.
// values below are reported binding signal
measured_attribute: binding signal

1. ACTCTCTTCCTCACGACGCACCACGGGCTAGCCACTCCTACGGAGTCACCTAGTGCAG 8340 fluorescence intensity (a.u.)
2. ACTCCCTTGCTTTTTCTCGCTATCAATCACAATAATCCAACGGAGTCACCTAGTGCAG 9590 fluorescence intensity (a.u.)
3. TTGGGTGGAGGATTTGGAATTTGACCGGTTGACTTAGGGTCGGAGTCACCTAGTGCAG 11900 fluorescence intensity (a.u.)
4. AATCTGACTGAAGTATGTACTTTGTGTTGACCAATTTGGCCGGAGTCACCTAGTGCAG 10200 fluorescence intensity (a.u.)
5. CGTCGTGGCGGGTTCATCGGGAGGGGATTATTGATTTAGTCGGAGTCACCTAGTGCAG 21100 fluorescence intensity (a.u.)
6. CGTCATATTTGCACCGTTTGGGTAGGGTGGGGATGGGGTGCGGAGTCACCTAGTGCAG 18700 fluorescence intensity (a.u.)
7. CCCACATCAAAACCTTGAATTTTCACAGTTTCTTGCATTTCGGAGTCACCTAGTGCAG 9890 fluorescence intensity (a.u.)
8. GCCATTCTATAGGAGGTGGTGGGGAGGGTTTCGTGCTCCTCGGAGTCACCTAGTGCAG 10800 fluorescence intensity (a.u.)
9. CTGTTGACTATCCATGCCATTTTTACCGATTAGTCTATCTCGGAGTCACCTAGTGCAG 13800 fluorescence intensity (a.u.)

###

Form field: binding signal (one value per entry).
# target_or_test_system: OsWRKY34 (Oryza sativa, UniProt Q0JBA9 1-250)
# protocol_details: protein-binding microarray (RPBM); PBS, 2% BSA, 51.3 ng/ul salmon testes DNA, 50 uM zinc acetate, 200 nM TF, 25 C, 1 h; high values mean tight binding
# measurement_conditions: protein: recombinant; tags: N-terminal polyhistidine and DsRed monomer fusion (pET32a); label: CyDye5-dUTP incorporated in the synthesized complementary strand; 3' TTTTT single-stranded linker to array surface; dsDNA, one strand shown
Whole data set: some 68,000 sequences, median “fluorescence intensity (a.u.)” near 9,100, cut for the highest 2% near 16,000. The sample as a whole holds a higher share of the highest values than the screen did.
measured_attribute: binding signal

1) AATTTTGACTTTTTCTTGACTAATTAGGCCATCCGATGGGCGGAGTCACCTAGTGCAG 17800 fluorescence intensity (a.u.)
2) GACTTTATATGTGACTTTTTTTTTAACTTTTTCATAATTTCGGAGTCACCTAGTGCAG 9730 fluorescence intensity (a.u.)
3) TTTTAAGTATAATTTCTCTATAATTTGACAATGTGGTGCTCGGAGTCACCTAGTGCAG 8550 fluorescence intensity (a.u.)
4) GAGATAGATGGGCCTGAAATGCGCCGATGGTCAGGCCTGCCGGAGTCACCTAGTGCAG 8190 fluorescence intensity (a.u.)
5) CCGTGTTGTCGTTCCTCCAAATTTGTACCGTTTTCCCTCTCGGAGTCACCTAGTGCAG 8770 fluorescence intensity (a.u.)
6) CCATTATGGTGTTTCTTAGTTGTTTTTTTTGCCTTTTACTCGGAGTCACCTAGTGCAG 8470 fluorescence intensity (a.u.)
7) ATGCACCACTGTTCCTGTCCTGGCTTTGCACAACATCCATCGGAGTCACCTAGTGCAG 13300 fluorescence intensity (a.u.)
8) ACACTTTGATCCCGATCGATGGCGCCATCCACTAATTGATCGGAGTCACCTAGTGCAG 10700 fluorescence intensity (a.u.)
9) CTTTCTTATTGACTATTTTATTATTTGAGGTCATTTAGGGCGGAGTCACCTAGTGCAG 9310 fluorescence intensity (a.u.)
